# Experiment: Single ascending-dose clinical trial of intranasal betahistine in healthy volunteers (plasma pharmacokinetics, LC-MS/MS)
# Experimental Setup: both, human, plasma, inhaled or intranasal, 0.15 mg/kg
Recorded Endpoint: AUC (ng·h/mL)
Form entry: value (ng·h/mL) — number only.

q: Fill in: AUC of "CNCCc1ccccn1" is ___
a: 0.533

* * *

# Experiment: Pharmacokinetic profile after single oral, intranasal and intravenous betahistine in beagle dogs, Example 5
# Format: in vivo
# Experimental Setup: male, beagle, dog, in vivo, po, 24 mg/kg
# Procedure: In this study, the pharmacokinetic profile of betahistine was evaluated after a single dose administration of betahistine in male and female beagle dogs (age 5-7 months; weight of 5-11 kg, within a range of 3 kg for each sex) for three routes of administration: oral, intranasal, and intravenous. On Day 1 of the study, betahistine (BH) was delivered orally at a dose of 12 mg/kg, 24 mg/kg, or 48 mg/kg. Each treatment group comprised 8 animals (4 males and 4 females). […]
Recorded Endpoint: half-life
Please report the result as a number followed by the unit.

q: Fill in: half-life of CNCCc1ccccn1 [betahistine] is ___
a: 47.1 min
